Tested on: MDA-MB-468 breast
Assay: NCI-60 one-dose screen, 48 h (100 = growth as untreated, 0 = no growth, -100 = all killed)
Conditions: 10 µM unless noted
The panel holds about 83,000 compounds, 20% with a hit somewhere; the sample as a whole holds those more often.
VALUE KIND: growth (%)

In [3]: df
Out[3]:
                                   compound  value_kind  quantitative_readout
0  O=C(CS)OCC(COC(=O)CS)(COC(=O)CS)COC(=O)CS      growth                  78.8
1      CCCC(=O)CC(C)=O.CCCC(=O)CC(C)=O.[Cu]      growth                   107
2  CC1=NN(c2ccccc2)C(=O)/C1=C\N1CC(=O)NC1=S      growth                   101
3  COc1cc(-c2nc3ccccc3o2)cc(CN2CCN(c3ccccc3)CC2)c1O      growth                  76.3
4  COc1ccc(C2Nc3ncnc(N)c3N=C3c4ccccc4C(=O)C32)cc1 (configuration not stated)      growth                  86.1
5  CC/C(=C(/c1ccc(Cl)cc1)c1ccc(OCCN(C)C)cc1)c1ccc(Cl)cc1      growth                  50.7
6  Cc1ccc(Cn2c(N3CCC(C(=O)NCc4cccs4)CC3)nc3ccccc32)cc1      growth                  95.3

----------
System: MDA-MB-468 breast
Test: NCI-60 one-dose screen, 48 h
Details: 10 µM unless noted
This is part of a sample that, as a whole, favours compounds with a hit. Of some 83,000 tested, about 20% had one in any assay. Calls of active or inactive are those of the source. The calls were made as follows: active = growth percent below 10; inactive = the rest.
Labels: True = active, False = inactive

                            molecule_smiles  category
0                           OCC(CO)(CCl)CCl     False
1  C=C1C(=O)O[C@H]2[C@H]1CC/C(CNC(=O)c1cc3cc(OC)ccc3[nH]1)=C\CC[C@@]1(C)O[C@@H]21      True
2  COC(=O)[C@]12CC[C@@H](C)[C@H](C)[C@@H]1C1=CC[C@@H]3[C@@]4(C)C(C=O)=C[C@@](C)(COS(C)(=O)=O)C4=CC[C@@]3(C)[C@]1(C)CC2      True
3  NNCCc1ccc(NC(=O)CCCc2ccc(/C=C/C(=O)NO)cc2)cc1     False
4  CC1=CC(=O)CC(C)(C)[C@@]1(O)/C=C/C(C)=C\C(=O)O      True

----------
Tested on: MDA-MB-468 breast
Assay: NCI-60 one-dose screen, 48 h (100 = growth as untreated, 0 = no growth, -100 = all killed)
Conditions: 10 µM unless noted
Compounds without any hit were thinned out: in the full panel of roughly 83,000, 20% have a hit.
VALUE KIND: growth (%)

>>> print(df.to_string())
                            molecule_smiles  value_kind  quantitative_readout
0  COc1cc(CNCCN2C(=O)c3ccc4c5c(ccc(c35)C2=O)C(=O)N(CCNCc2cc(OC)c(OC)c(OC)c2)C4=O)cc(OC)c1OC      growth                 -91.6
1  Cc1nc2cc(Nc3nc(Nc4ccc(F)cc4)nc(-c4ccc(Cl)cc4)n3)ccc2n1Cc1ccccc1      growth                  74.3
2            O=C1Nc2ccc(Cl)cc2/C1=C/c1cccs1      growth                 -4.25

----------
System: MDA-MB-468 breast
Test: NCI-60 one-dose screen, 48 h
Conditions: 10 µM unless noted
This is part of a sample that, as a whole, favours compounds with a hit. Of some 83,000 tested, about 20% had one in any assay. Activity calls are given as the source filed them. How the source made its calls: active means growth percent below 10; inactive means the rest.
Possible outcomes: y for active, n for inactive

                                    molecule             system  category
 0                      COCc1cc2c(cc1Br)OCO2  MDA-MB-468 breast         n
 1                  Cc1ccc(NC(=O)/C=N/O)cc1C  MDA-MB-468 breast         n
 2   ClC1=C(Cl)C(Cl)=C(Cl)C1=Cc1ccc(Cl)cc1Cl  MDA-MB-468 breast         y
 3  COc1ccc(Nc2nn3c(SCC(=O)c4ccc(C)cc4)nnc3s2)cc1  MDA-MB-468 breast         n
 4  NC(=S)N/N=C1\CCCC(C(F)(F)F)C1 (stereo unspecified)  MDA-MB-468 breast         n
 5  CCN1CCN(/C(=N\c2sc(-c3ccccc3)nc2-c2ccccc2)c2ccccc2)CC1  MDA-MB-468 breast         n
 6       C1=C[C@H]2O[C@@H]1c1ccc3[nH]ccc3c12  MDA-MB-468 breast         n
 7                       O=Cc1nc2ccccc2[nH]1  MDA-MB-468 breast         n
 8  C=CC(=O)N[C@@H](Cc1ccc(-c2cc(Cl)cc(Cl)c2)cc1)[C@@H](O)[C@H](O)C(=O)O  MDA-MB-468 breast         n
 9  NC(=O)C1(N2CCCCC2)CCN(CCCC(=O)c2ccc(F)cc2)CC1  MDA-MB-468 breast         y
10  Cc1ccc(NC(=O)c2sc3nc(C)c(C(=O)c4ccccc4)cc3c2N)cc1  MDA-MB-468 breast         n

----------
Tested on: MDA-MB-468 breast
Assay: NCI-60 one-dose screen, 48 h (100 = growth as untreated, 0 = no growth, -100 = all killed)
Settings: 10 µM unless noted
About 83,000 compounds went through this panel and 20% of them were active in at least one assay; those are over-represented in the sample as a whole.
Each entry below lists one item and its recorded growth value.
VALUE KIND: growth (%)

In [3]: df
Out[3]:
                            molecule_smiles             system  units_of_measure  quantitative_readout
0  C[C@H]1[C@H]2C3=CC[C@@H]4[C@@]5(C)C/C(=C/c6ccco6)C(=O)C(C)(C)[C@@H]5CC[C@@]4(C)[C@]3(C)CC[C@@]2(C(=O)N2CCOCC2)CC[C@@H]1C  MDA-MB-468 breast                 %                  59.5
1  CC1(C)NCCC[C@]2(C)[C@H]3CC[C@@H]4[C@H]5[C@H](C(=O)/C=C/c6ccco6)CC[C@]5(CO)CC[C@@]4(C)[C@]3(C)CC[C@@H]12  MDA-MB-468 breast                 %                  87.9
2             CCN(CC)CCCNc1cc(OC)cc2cccnc12  MDA-MB-468 breast                 %                    59

----------
System: MDA-MB-468 breast
Test: NCI-60 one-dose screen, 48 h
Conditions: 10 µM unless noted
This is part of a sample that, as a whole, favours compounds with a hit. Of some 83,000 tested, about 20% had one in any assay. The source made the active and inactive calls. Rule for the calls: active = growth percent below 10; inactive = the rest.
Outcomes: active, inactive

In [3]: df
Out[3]:
                                   compound  category
0  Cc1c(C)c2c(c(C)c1NC(=O)/C=C\C(=O)O)CCC(C)(CCCC(C)CCCC(C)CCCC(C)C)O2 (centres undefined)    active
1  O=C1CCC(N2C(=O)c3cccc(NCCOCCOCCNC(=O)c4cc5c(o4)C(=O)c4ccccc4C5=O)c3C2=O)C(=O)N1 (centres undefined)    active
2  O=S(=O)(Nc1ccc(NS(=O)(=O)c2ccccc2)c(Cl)c1)c1ccccc1  inactive
3                              CCNCc1ccccc1  inactive

----------
Test system: MDA-MB-468 breast
Test: NCI-60 one-dose screen, 48 h (100 = growth as untreated, 0 = no growth, -100 = all killed)
Settings: 10 µM unless noted
The panel holds about 83,000 compounds, 20% with a hit somewhere; the sample as a whole holds those more often.
Entries whose growth is below 90% take T; entries at or above 90% take F.

>>> print(df.to_string())
                                   molecule  category
0  Cc1nc(-c2cc3ccccc3oc2=O)ccc1C(=O)/C=C/c1ccccn1         T
1                    Cc1ccc(/C=N/NC(N)=S)s1         F
2  NC(=O)[C@@H]1CC2CCC1C2 (stereo partly specified)         F
3  COC1(OC)C2(Cl)C=C(c3ccccc3)C1(Cl)C(Cl)=C2Cl (stereo unspecified)         F
4  O=C1NCCS(=O)(=O)/C1=C\C=C\c1cccc(C(F)(F)F)c1         T
